In this section, each of the molecules is paired with its reported IC50.
Tested on: Ishikawa (K-Ras wild type cell line)
Test: Viability assay (CellTiterBlue, 72 hr) Ishikawa
Type: cell-based
Settings: Homo sapiens, GI50, CellTiterBlue, Ishikawa K-Ras wild-type
Field: numeric (µM). Do not append units.

Item: Cc1nc(C)c(C(=O)Nc2nc(-c3ccc4c(c3)CCC(=O)N4Cc3ccc4c(c3)OCO4)cs2)o1 | IC50: 16

Sample COc1cccc(CN2C(=O)CCc3cc(-c4csc(NC(=O)c5oc(C)nc5C)n4)ccc32)c1 ; IC50 observed: 5

IC50 in this record for Cc1nc(C)c(C(=O)Nc2nc(-c3ccc4c(c3)CCC(=O)N4Cc3cccnc3)cs2)o1 : 24

IC50 recorded for this molecule, Cc1nn(C(C)C)c(C)c1C(=O)Nc1nc(-c2ccc3c(c2)CCC(=O)N3)cs1 , is 13

Further cases:
The value of IC50 measured for the molecule COC(=O)CCCN1C(=O)CCc2cc(-c3csc(NC(=O)c4oc(C)nc4C)n3)ccc21 turned out to be 3

Looking up Cc1nc(C)c(C(=O)Nc2nc(-c3ccc4c(c3)CCC(=O)N4CC3CCCOC3)cs2)o1 (stereo not shown) , I found its IC50 recorded as 2

Noted for CCc1nc(C)c(C(=O)Nc2nc(-c3ccc4c(c3)CCC(=O)N4CCOC)cs2)o1 : its IC50 reads 10

###

Tested on: HCC827 (K-Ras wild type cell line)
Assay: Viability assay (CellTiterBlue, 72 hr) HCC827
Type: cell-based
Details: Homo sapiens, GI50, CellTiterBlue, HCC827 K-Ras wild-type
quantity_name: IC50 (µM)
Answer format: numeric, µM implied, no suffix.

Below: 6 compounds and their reported IC50.
IC50 reading for Cc1nc(-c2ccc3c(c2)OCC3)sc1C(=O)Nc1nc(-c2ccc3c(c2)CCC(=O)N3)cs1 : 8

# IC50 of CCn1cc(C(=O)Nc2nc(-c3ccc4c(c3)CCC(=O)N4)cs2)c(C)n1 = 7

get_value(item= Cc1nc(C2CCC2)oc1C(=O)Nc1nc(-c2ccc3c(c2)CCC(=O)N3Cc2cccnc2)cs1 , readout=IC50) returns 4

Query COCCN1C(=O)CCc2cc(-c3csc(NC(=O)c4c(C)nn(C(C)C)c4C)n3)ccc21 yields IC50 of 2

Reported IC50 ( Cc1nc(C)c(C(=O)Nc2nc(-c3ccc4c(c3)CCC(=O)N4C3CCCC3)cs2)o1 ) = 2

The reported value for CCn1cc(C(=O)Nc2nc(-c3ccc4c(c3)CCC(=O)N4Cc3cccnc3)cs2)c(C)n1 in terms of IC50 is 11

Further cases:
IC50 reading for Cc1nc(C2CCOC2)oc1C(=O)Nc1nc(-c2ccc3c(c2)CCC(=O)N3Cc2cccnc2)cs1 (centres unmarked) : 5

Record summary for Cc1nc(C)c(C(=O)Nc2nc(-c3ccc4c(c3)CCC(=O)N4CC(O)CO)cs2)o1 (centres unmarked) : reported IC50 = 12

###

Test system: Ishikawa (K-Ras wild type cell line)
Experiment: Viability assay (CellTiterBlue, 72 hr) Ishikawa
Type: cell-based
Conditions: Homo sapiens, GI50, CellTiterBlue, Ishikawa K-Ras wild-type
Readings of pIC50 for the listed molecules
Scale for pIC50: -log10 of concentration given in mol/L; no unit attached.

In the examples that follow, each entry is paired with its recorded pIC50.
pIC50 reported for this molecule Cc1nc(C2CC2)oc1C(=O)Nc1nc(-c2ccc3c(c2)CCC(=O)N3Cc2cccnc2)cs1 : 5.70

Kindly note the recorded pIC50 for Cc1nc(C)c(C(=O)Nc2nc(-c3ccc4c(c3)CCC(=O)N4Cc3cncc4ccccc34)cs2)o1 , which is 5.40

get_value(item= CCn1nc(C)c(C(=O)Nc2nc(-c3ccc4c(c3)CCC(=O)N4CCOC)cs2)c1C , readout=pIC50) returns 5.52

---
The measured pIC50 associated with Cc1nc(C)c(C(=O)Nc2nc(-c3ccc4c(c3)CCC(=O)N4Cc3cccc4c3OCO4)cs2)o1 reads 5.40

Reported pIC50 of Cc1nc(-c2ccc3c(c2)OCC3)sc1C(=O)Nc1nc(-c2ccc3c(c2)CCC(=O)N3)cs1 : 5.70

pIC50 reading for Cc1nc(C2CC2)oc1C(=O)Nc1nc(-c2ccc3c(c2)CCC(=O)N3Cc2ccccc2)cs1 : 5.64

Measured pIC50 of Cc1nn(C(C)C)cc1C(=O)Nc1nc(-c2ccc3c(c2)CCC(=O)N3Cc2cccnc2)cs1 : 4.68

Per the records, this molecule ( Cc1nc(C2CC2)oc1C(=O)Nc1nc(-c2ccc3c(c2)CCC(=O)N3)cs1 ) has pIC50 equal to 5.00

Record Cc1cc(C)c(C(=O)Nc2nc(-c3ccc4c(c3)CCC(=O)N4)cs2)cn1 . Reported pIC50: 5.70

Per the record, CCc1nc(C)c(C(=O)Nc2nc(-c3ccc4c(c3)CCC(=O)N4Cc3cccnc3)cs2)o1 has pIC50 of 5.46

The reported value for COC(=O)CCN1C(=O)CCc2cc(-c3csc(NC(=O)c4oc(C)nc4C)n3)ccc21 in terms of pIC50 is 5.40

molecule Cc1nn(C)cc1C(=O)Nc1nc(-c2ccc3c(c2)CCC(=O)N3)cs1 , pIC50 observed: 5.30

Looking up Cc1nn(C(C)C)cc1C(=O)Nc1nc(-c2ccc3c(c2)CCC(=O)N3)cs1 , I found its pIC50 recorded as 5.15

The molecule listed as Cc1nc(C2CCOC2O)sc1C(=O)Nc1nc(-c2ccc3c(c2)CCC(=O)N3Cc2cccnc2)cs1 (centres unmarked) shows pIC50 equal to 5.22
